tested on: SH-SY5Y; experiment: Neuroprotective activity in human SH-SY5Y cells under serum-free condition assessed as protection against potassium-induced toxicity at 5 uM after 24 hrs by MTT assay relative to control; type: functional
Items are presented alongside their recorded Activity.
Record the value in %, omitting the unit from your answer.

Solved entries:
CC1=C(C(=O)SC(C)(C)C)C(c2ccc(Br)cc2)C=C(c2ccc(C)cc2)N1 (stereo unspecified) ... 34.46
CCOC(=O)C1=C(C)NC(c2ccccc2)=CC1c1ccccc1 (stereo unspecified) ... 34.65
CC(=O)C1=C(C)NC(c2ccccc2)=CC1c1ccccc1 (stereo unspecified) ... 32.46
CC1=C(C(=O)SC(C)(C)C)C(c2ccccc2)C=C(c2ccccc2)N1 (stereo unspecified) ... 34.13
CCOC(=O)C1=C(C)NC(c2ccc(Cl)cc2)=CC1c1ccccc1 (stereo unspecified) ... 36.57

Input: Please give measured Activity of the following entry: CCOC(=O)C1=C(CC)NC(c2ccccc2)=CC1c1ccccc1 (stereo unspecified)
Output: 31.37

Where do the numbers come from? From ChEMBL document CHEMBL3217626.
